Test name: Standard CCK-8 cytotoxicity assay
Assay type: cell-based
Measurement parameters: African green monkey, Vero E6 cells, 48 hours incubation
Procedure: Vero E6 African green monkey kidney cell line was obtained from American Type Culture Collection (ATCC, No. 1586) and maintained in MEM medium (MEM; Gibco Invitrogen) supplemented with 10% fetal bovine serum (FBS; Gibco Invitrogen) at 37° C. in an atmosphere of 5% CO2. Standard CCK-8 assays were performed to measure the cytotoxic effect of the drug candidates on Vero E6 cells, which was performed in accordance with the manufacturer's instructions (Beyotime, China).
Recorded metric: CC50 at 48 h (µM)
Numbers only, in µM.

// CC50 at 48 h value for CC(=O)Oc1ccccc1C(=O)Nc1ncc([N+](=O)[O-])s1 [NTZ] : 36.8
